Test: in vitro
Conditions: human, mt-4 cells
compounds and their reported CC50

smiles input	limit operator	CC50 [µM]
O=C(O)C1=CC(=C(c2ccc(O)c(C(=O)O)c2)c2ccc(O)c(C(=O)O)c2)C=CC1=O	=	590
O=C1C=CC(=C(c2ccc(O)cc2)c2ccc(O)cc2)C=C1	=	2.6
Cc1cc(C(=C2C=CC(=N)C(S(=O)(=O)O)=C2)c2ccc(N)c(S(=O)(=O)O)c2)cc(S(=O)(=O)O)c1N	>	3120
Cc1ccc(C(=O)Nc2ccc(S(=O)(=O)O)c3cc(S(=O)(=O)O)cc(S(=O)(=O)O)c23)cc1NC(=O)c1cccc(NC(=O)Nc2cccc(C(=O)Nc3cc(C(=O)Nc4ccc(S(=O)(=O)O)c5cc(S(=O)(=O)O)cc(S(=O)(=O)O)c45)ccc3C)c2)c1	=	625

* * *

# reported CC50; entries follow
Assay: in vitro
Conditions: human, hut-78 cells

smiles input	unit spec	limit operator	CC50
Cc1ccc(C(=O)Nc2ccc(S(=O)(=O)O)c3cc(S(=O)(=O)O)cc(S(=O)(=O)O)c23)cc1NC(=O)c1cccc(NC(=O)Nc2cccc(C(=O)Nc3cc(C(=O)Nc4ccc(S(=O)(=O)O)c5cc(S(=O)(=O)O)cc(S(=O)(=O)O)c45)ccc3C)c2)c1	µM	=	55
O=C1C=CC(=C(c2ccc(O)cc2)c2ccc(O)cc2)C=C1	µM	=	2.3
Cc1cc(C(=C2C=CC(=N)C(S(=O)(=O)O)=C2)c2ccc(N)c(S(=O)(=O)O)c2)cc(S(=O)(=O)O)c1N	µM	>	625
O=C(O)C1=CC(=C(c2ccc(O)c(C(=O)O)c2)c2ccc(O)c(C(=O)O)c2)C=CC1=O	µM	=	13

* * *

Test system: HIV-1
Assay: Anti-HIV-1 assay in MT-4 cells, inhibition of viral cytopathogenicity
Format: cell-based
Settings: Human immunodeficiency virus 1, MT4; MT-4 cells, HIV-1, cytopathogenic effect; read-out: ED50 a: Antiviral 50% effective dose
pEC50: −log10 of the molar value.
measure name: pEC50

compound	limit operator	assay value
Cc1cc(C(=C2C=CC(=N)C(S(=O)(=O)O)=C2)c2ccc(N)c(S(=O)(=O)O)c2)cc(S(=O)(=O)O)c1N [Fuchsinic acid]	=	4.38
Cc1ccc(C(=O)Nc2ccc(S(=O)(=O)O)c3cc(S(=O)(=O)O)cc(S(=O)(=O)O)c23)cc1NC(=O)c1cccc(NC(=O)Nc2cccc(C(=O)Nc3cc(C(=O)Nc4ccc(S(=O)(=O)O)c5cc(S(=O)(=O)O)cc(S(=O)(=O)O)c45)ccc3C)c2)c1 [Suramin]	=	4.49
O=C(O)C1=CC(=C(c2ccc(O)c(C(=O)O)c2)c2ccc(O)c(C(=O)O)c2)C=CC1=O [ATA, Aurintricarboxylic acid]	=	5.30
O=C1C=CC(=C(c2ccc(O)cc2)c2ccc(O)cc2)C=C1 [Aurin]	<	5.59
